Consider the following variants and their measured nonsense suppression readings.
B1: tRNA (parent)
chain: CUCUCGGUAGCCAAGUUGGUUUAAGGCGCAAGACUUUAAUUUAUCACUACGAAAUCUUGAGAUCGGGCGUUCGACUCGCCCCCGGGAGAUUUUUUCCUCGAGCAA

# Variants of: B1
# assay-method-text: nonsense suppression (GFP-seq) (ratio to wild type); higher = more function; SUP4oc tRNA, yeast GFP reporter sort-seq
Variants at the floor of the assay were thinned out.
measurement-label: nonsense suppression

• A31G G67C G85A = ≤ 0.026
• A14G U17A G25A C29U U63G = ≤ 0.026
• C1G U8G U63C G73U = ≤ 0.026
• G6C U71A = ≤ 0.026
• C29U C79U G86A = ≤ 0.026
• C27G A31G A54U U70C G84A = ≤ 0.026
• G67A U76A G85U = ≤ 0.026
• U21C G25A G26A = ≤ 0.026
• G18C G19A A24U = ≤ 0.026
• A31C G66C G85U = ≤ 0.026
• G7A U20G C34U U57C C64A C79U G88C = ≤ 0.026
• A13C G78A = 0.208
• U4A U22G = 0.155
• U20A G78A = 0.0977
• G61C C80U = 0.731
• U4A U76A = 0.0437
• A24C A89C = 0.0925
• A30G G59A G73C = ≤ 0.026
• G59C U63A G66A C68U C72A = ≤ 0.026
• U35G U55C G61C G73U = ≤ 0.026
• U2G U58G C83G = ≤ 0.026
• A9G U17C = 0.113
• C27A G59U = ≤ 0.026
• G15C G18U U76G A87G = ≤ 0.026
• A13C G18U G26A A31U = ≤ 0.026
• A13G G61C = 0.0301
• A9C A87G = 0.649
• C5U G69A = ≤ 0.026
• C3U U4C = 0.859
• A9G U76G C80G = ≤ 0.026

Data origin: the RNAGym collection of RNA variant scans (doi:10.1101/gad.245936.114)
